- measured-on: T1, human TREM2 (human, UniProt Q9NZC2 19-174, limits assumed)
- T1 construct: also called triggering receptor expressed on myeloid cells 2
- T1 sequence: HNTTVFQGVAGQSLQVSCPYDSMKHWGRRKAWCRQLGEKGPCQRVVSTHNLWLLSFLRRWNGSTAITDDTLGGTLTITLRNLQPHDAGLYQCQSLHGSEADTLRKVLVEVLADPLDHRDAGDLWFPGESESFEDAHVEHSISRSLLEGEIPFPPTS
- test-protocol: 1st screen (110 nM or 10 nM)
The reader will find reported Binding Signal (fold over 6E7 Parental antibody) values listed item by item below.
Write the answer as a number in fold, unit excluded.

[ask] Requested read-out: Binding Signal (fold over 6E7 Parental antibody). Entry: V80 (antibody, V domains shown) VH: EVQLVQSGAEVKKPGESLKISCKGSGYSFTSYWIAWVRQMPGKGLEWMGIIYPGDSDTRYSPSFQGQVTISADKSISTAYLQWSSLKASDTAMYFCARQRNFYYDSSDYFDYWGQGTLVTVSS VL: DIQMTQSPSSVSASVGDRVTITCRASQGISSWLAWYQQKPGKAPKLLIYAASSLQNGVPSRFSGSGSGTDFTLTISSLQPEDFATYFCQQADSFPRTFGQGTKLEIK
[reply] 0.59

Next binder, please.
[ask] Form field: reported Binding Signal (fold over 6E7 Parental antibody) of V46 (antibody, V domains shown) VH: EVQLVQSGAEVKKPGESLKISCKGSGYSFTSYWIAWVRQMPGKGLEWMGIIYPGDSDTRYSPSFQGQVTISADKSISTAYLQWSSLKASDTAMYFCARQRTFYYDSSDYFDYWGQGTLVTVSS VL: DIQMTQSPSSVSASVGDRVTITCRASQGISSWLAWYQQKPGKAPKLLIYAASTLQNGVPSRFSGSGSGTDFTLTISSLQPEDFATYFCQQADSFPRTFGQGTKLEIK
[reply] 0.83
